The entries below are paired with their reported pKi.
# target-or-system: NanJGH33 (Clostridium perfringens)
# Sequence (A0A0H2YT71 373-820 limits assumed): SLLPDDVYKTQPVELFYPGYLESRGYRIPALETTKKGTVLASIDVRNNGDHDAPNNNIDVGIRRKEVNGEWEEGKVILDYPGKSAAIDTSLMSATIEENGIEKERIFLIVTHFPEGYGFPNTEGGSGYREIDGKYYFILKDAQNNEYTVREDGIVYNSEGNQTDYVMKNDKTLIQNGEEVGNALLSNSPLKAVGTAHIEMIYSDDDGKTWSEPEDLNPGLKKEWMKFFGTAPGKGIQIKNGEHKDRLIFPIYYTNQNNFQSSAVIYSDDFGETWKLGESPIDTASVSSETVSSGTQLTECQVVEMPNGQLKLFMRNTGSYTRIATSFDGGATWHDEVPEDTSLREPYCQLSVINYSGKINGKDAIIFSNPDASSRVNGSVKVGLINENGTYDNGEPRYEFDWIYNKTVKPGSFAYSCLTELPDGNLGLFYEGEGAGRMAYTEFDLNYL
# assay-notes: biochemical
# Type: biochemical
pKi: −log10 of the molar value.

{"compound": "CCOC(=O)C1=C[C@@H](OC(CC)CC)[C@H](NC(C)=O)[C@@H](N)C1", "target-or-system": "NanJGH33 (Clostridium perfringens)", "pKi": "< 4.00"}
{"compound": "CC(=O)N[C@H]1NC[C@H](C(=O)O)[C@H](O)[C@@H]1O", "target-or-system": "NanJGH33 (Clostridium perfringens)", "pKi": 4.88}
{"compound": "CC(=O)N[C@H]1[C@H]([C@H](O)[C@H](O)CO)OC(C(=O)O)=C[C@@H]1N=C(N)N", "target-or-system": "NanJGH33 (Clostridium perfringens)", "pKi": "< 4.00"}
